Each recorded value in this set is attributed to ChEMBL document CHEMBL4196125.

methodSummary: Tmax in mouse at 50 mg/kg, po administered as single dose
Assay type: ADME, organism-based
details: in vivo
observationType: Tmax (h)
Enter your answer as a number in h; do not include the unit.

>  <recordSmiles>
O=C(NCc1ccc(N2CCC(c3ccc(OC(F)(F)F)cc3)CC2)cc1)c1cc([N+](=O)[O-])cc([N+](=O)[O-])c1

>  <resultUnit>
h

>  <Tmax>
0.83

$$$$
>  <recordSmiles>
O=C(NCc1ccc(N2CCC(C(F)(F)F)CC2)cc1)c1cc([N+](=O)[O-])cc([N+](=O)[O-])c1

>  <resultUnit>
h

>  <Tmax>
0.92

$$$$
>  <recordSmiles>
O=C(NCc1ccc(N2CCSCC2)cc1)c1cc([N+](=O)[O-])cc([N+](=O)[O-])c1

>  <resultUnit>
h

>  <Tmax>
2.75

$$$$

*Q* Supply Tmax value. Item: O=C(NCc1ccc(N2CCN(c3ccc(F)cc3)CC2)cc1)c1cc([N+](=O)[O-])cc([N+](=O)[O-])c1
*A* 1.08

* * *

methodSummary: Half life in mouse at 50 mg/kg, po administered as single dose
Assay type: ADME, organism-based
details: in vivo
Some molecules, each annotated with its measured half-life.

Consider the reported half-life for these molecules:
>  <recordSmiles>
O=C(NCc1ccc(N2CCSCC2)cc1)c1cc([N+](=O)[O-])cc([N+](=O)[O-])c1

>  <testResult>
3.3 h

$$$$
>  <recordSmiles>
O=C(NCc1ccc(N2CCC(C(F)(F)F)CC2)cc1)c1cc([N+](=O)[O-])cc([N+](=O)[O-])c1

>  <testResult>
3.63 h

$$$$
>  <recordSmiles>
O=C(NCc1ccc(N2CCN(c3ccc(F)cc3)CC2)cc1)c1cc([N+](=O)[O-])cc([N+](=O)[O-])c1

>  <testResult>
13.6 h

$$$$

*Q* Supply half-life value. Item: O=C(NCc1ccc(N2CCC(c3ccc(OC(F)(F)F)cc3)CC2)cc1)c1cc([N+](=O)[O-])cc([N+](=O)[O-])c1
*A* 5.52 h

* * *

methodSummary: Cmax in mouse at 50 mg/kg, po administered as single dose
Assay type: ADME, organism-based
Design: dose 50 mg/kg, route oral
details: in vivo
observationType: Cmax (ng/mL)
Enter your answer as a number in ng/mL; do not include the unit.

Consider the reported Cmax for these compounds:
>  <recordSmiles>
O=C(NCc1ccc(N2CCC(C(F)(F)F)CC2)cc1)c1cc([N+](=O)[O-])cc([N+](=O)[O-])c1

>  <Cmax (ng/mL)>
1720

$$$$
>  <recordSmiles>
O=C(NCc1ccc(N2CCN(c3ccc(F)cc3)CC2)cc1)c1cc([N+](=O)[O-])cc([N+](=O)[O-])c1

>  <Cmax (ng/mL)>
15

$$$$
>  <recordSmiles>
O=C(NCc1ccc(N2CCC(c3ccc(OC(F)(F)F)cc3)CC2)cc1)c1cc([N+](=O)[O-])cc([N+](=O)[O-])c1

>  <Cmax (ng/mL)>
366

$$$$

*Q* Supply Cmax value. Item: O=C(NCc1ccc(N2CCSCC2)cc1)c1cc([N+](=O)[O-])cc([N+](=O)[O-])c1
*A* 19

* * *

Some compounds, each annotated with its measured AUC(0-inf).
methodSummary: AUC (0 to infinity) in mouse at 50 mg/kg, po administered as single dose
Type: ADME, organism-based
Parameters: dose 50 mg/kg, route oral, time infinity
details: in vivo
Quote the value and follow it with the unit of measurement.

>  <recordSmiles>
O=C(NCc1ccc(N2CCC(c3ccc(OC(F)(F)F)cc3)CC2)cc1)c1cc([N+](=O)[O-])cc([N+](=O)[O-])c1

>  <observationType>
AUC(0-inf)

>  <testResult>
3260 ng·h/mL

$$$$
>  <recordSmiles>
O=C(NCc1ccc(N2CCC(C(F)(F)F)CC2)cc1)c1cc([N+](=O)[O-])cc([N+](=O)[O-])c1

>  <observationType>
AUC(0-inf)

>  <testResult>
5600 ng·h/mL

$$$$
>  <recordSmiles>
O=C(NCc1ccc(N2CCSCC2)cc1)c1cc([N+](=O)[O-])cc([N+](=O)[O-])c1

>  <observationType>
AUC(0-inf)

>  <testResult>
41.1 ng·h/mL

$$$$

Now consider a different compound.
*Q* Supply AUC(0-inf) value. Item: O=C(NCc1ccc(N2CCN(c3ccc(F)cc3)CC2)cc1)c1cc([N+](=O)[O-])cc([N+](=O)[O-])c1
*A* 219 ng·h/mL
